All values here come from paper PMC13385394.

assay: Pharmacokinetics in mouse after p.o. and i.v. administration; assay type: in vivo; settings: C57BL/6J, mouse, in vivo, iv, 2 mg/kg, mouse 2mg/kg i.v.; Mean
outcome measure: AUC(0-t) (ng·h/mL)
Dear colleague, please return just the value in ng·h/mL, with no unit written.

input: Any idea what its AUC(0-t) is? The compound is CN(C)CCCCn1c(=O)c2c(nc(Oc3cccc(Cl)c3)n2Cc2ccc(Cl)cc2)n(C)c1=O
output: 478

----------
assay: Pharmacokinetics in mouse after p.o. and i.v. administration; assay type: in vivo; settings: po, 10 mg/kg; mouse p.o.; brain
outcome measure: Tmax
Could you give the number and then its unit, please?

input: Any idea what its Tmax is? The compound is CN(C)CCCCn1c(=O)c2c(nc(Oc3cccc(Cl)c3)n2Cc2ccc(Cl)cc2)n(C)c1=O
output: 4 h
